biological target: Phosphatidylinositol 3,4,5-trisphosphate 5-phosphatase 2 (Homo sapiens); experiment: Inhibition of SHIP2 (unknown origin) assessed as remaining enzyme activity at 30 uM using PtdIns(3,4,5)P3 as substrate preincubated for 20 mins followed by substrate addition measured for 50 mins by malachite green staining based assay relative to control
property name: Activity (%)
Write it as a number; the unit % goes unstated.

Some solved entries appear below for comparison.
{"columns": ["molecular string", "unit string", "Activity"],
 "data": [
  ["N#Cc1ccc(-c2cccc(OCc3ccc(Cl)cc3Cl)n2)s1", "%", 85.3],
  ["c1ccc(COc2cncc(-c3cnn(C4CCNCC4)c3)c2)cc1", "%", 92.4],
  ["Clc1ccc(COc2cncc(-c3cnn(C4CCNCC4)c3)c2)cc1", "%", 60.2]
]}

Moving on to another compound below.
compound `Clc1ccc(COc2cncc(Br)c2)c(Cl)c1` , Activity observed: 97.3

----------
assay: MRT (0 to infinity) in Sprague-Dawley rat at 10 mg/kg, po administered as single dose by LC-MS/MS analysis; type: ADME, organism-based; conditions: in vivo
property name: MRT inf
// unit must come after the numeric part

compound `C[C@@H](Oc1cncc(-c2cnc(N)nc2)c1)c1c(Cl)ccc(F)c1Cl` , MRT inf observed: 3.19 h

----------
experiment: Clearance in Sprague-Dawley rat at 2 mg/kg, iv administered as single dose by LC-MS/MS analysis; assay type: ADME, organism-based; details: in vivo
property name: clearance (mL/min/kg)
Write it as a number; the unit mL/min/kg goes unstated.

compound `C[C@@H](Oc1cncc(-c2cnc(N)nc2)c1)c1c(Cl)ccc(F)c1Cl` , clearance observed: 19.5

----------
assay: Apparent volume of distribution in Sprague-Dawley rat at 2 mg/kg, iv administered as single dose by LC-MS/MS analysis; assay type: ADME, organism-based; details: in vivo, read-out: Vz
property name: Vd (L/kg)
Write it as a number; the unit L/kg goes unstated.

compound `C[C@@H](Oc1cncc(-c2cnc(N)nc2)c1)c1c(Cl)ccc(F)c1Cl` , Vd observed: 2.3

----------
biological target: CYP2C9 (Homo sapiens); experiment: Inhibition of recombinant human CYP2C9 assessed as remaining enzyme activity at 10 uM preincubated for 5 mins followed by NADPH addition measured after 20 mins by fluorescence assay relative to control; type: ADME; settings: read-out: Activity
Sequence (P11712 whole entry): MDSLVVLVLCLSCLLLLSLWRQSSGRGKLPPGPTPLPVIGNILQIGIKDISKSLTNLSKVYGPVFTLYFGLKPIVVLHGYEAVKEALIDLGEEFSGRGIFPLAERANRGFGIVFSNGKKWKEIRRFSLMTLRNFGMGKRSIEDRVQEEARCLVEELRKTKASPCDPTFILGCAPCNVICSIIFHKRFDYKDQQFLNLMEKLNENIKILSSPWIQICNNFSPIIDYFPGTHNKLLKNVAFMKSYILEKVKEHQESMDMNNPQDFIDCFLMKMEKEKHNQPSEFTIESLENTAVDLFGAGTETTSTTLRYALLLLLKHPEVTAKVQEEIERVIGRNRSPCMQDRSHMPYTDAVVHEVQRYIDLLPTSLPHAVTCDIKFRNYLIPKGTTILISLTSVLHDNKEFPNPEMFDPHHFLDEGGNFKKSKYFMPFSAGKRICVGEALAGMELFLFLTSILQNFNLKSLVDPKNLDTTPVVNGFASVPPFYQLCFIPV
Mark 0 (no) for activity at 20 min, 10 µM values under 70%, and 1 (yes) for everything at or above.

Answer whether activity at 20 min, 10 µM of `Nc1ccc(-c2cncc(OCc3ccc(Cl)cc3Cl)c2)cn1` is greater than or equal to 70%.
0 (no)

Answer whether activity at 20 min, 10 µM of `N#Cc1ccc(-c2cncc(OCc3ccc(Cl)cc3Cl)c2)s1` is greater than or equal to 70%.
1 (yes)

Answer whether activity at 20 min, 10 µM of `C[C@@H](Oc1cncc(-c2cnc(N)nc2)c1)c1c(Cl)ccc(F)c1Cl` is greater than or equal to 70%.
0 (no)

Answer whether activity at 20 min, 10 µM of `C[C@@H](Oc1cncc(-c2ccc(C#N)s2)c1)c1c(Cl)ccc(F)c1Cl` is greater than or equal to 70%.
0 (no)

Answer whether activity at 20 min, 10 µM of `O=C(NCc1c(F)cccc1F)c1sccc1OCc1ccc(Cl)cc1Cl` is greater than or equal to 70%.
0 (no)

----------
assay: Drug uptake in blood of Sprague-Dawley rat at 5 mg/kg, iv measured at 0.5 hrs by LC-MS/MS analysis; assay type: ADME, organism-based; details: read-out: Drug uptake
property name: concentration at 0.5 h
// unit must come after the numeric part

molecule `C[C@@H](Oc1cncc(-c2cnc(N)nc2)c1)c1c(Cl)ccc(F)c1Cl` , concentration at 0.5 h observed: 1800 ng/mL

----------
Biological target: Phosphatidylinositol 3,4,5-trisphosphate 5-phosphatase 2 (Homo sapiens)
Sequence (whole entry): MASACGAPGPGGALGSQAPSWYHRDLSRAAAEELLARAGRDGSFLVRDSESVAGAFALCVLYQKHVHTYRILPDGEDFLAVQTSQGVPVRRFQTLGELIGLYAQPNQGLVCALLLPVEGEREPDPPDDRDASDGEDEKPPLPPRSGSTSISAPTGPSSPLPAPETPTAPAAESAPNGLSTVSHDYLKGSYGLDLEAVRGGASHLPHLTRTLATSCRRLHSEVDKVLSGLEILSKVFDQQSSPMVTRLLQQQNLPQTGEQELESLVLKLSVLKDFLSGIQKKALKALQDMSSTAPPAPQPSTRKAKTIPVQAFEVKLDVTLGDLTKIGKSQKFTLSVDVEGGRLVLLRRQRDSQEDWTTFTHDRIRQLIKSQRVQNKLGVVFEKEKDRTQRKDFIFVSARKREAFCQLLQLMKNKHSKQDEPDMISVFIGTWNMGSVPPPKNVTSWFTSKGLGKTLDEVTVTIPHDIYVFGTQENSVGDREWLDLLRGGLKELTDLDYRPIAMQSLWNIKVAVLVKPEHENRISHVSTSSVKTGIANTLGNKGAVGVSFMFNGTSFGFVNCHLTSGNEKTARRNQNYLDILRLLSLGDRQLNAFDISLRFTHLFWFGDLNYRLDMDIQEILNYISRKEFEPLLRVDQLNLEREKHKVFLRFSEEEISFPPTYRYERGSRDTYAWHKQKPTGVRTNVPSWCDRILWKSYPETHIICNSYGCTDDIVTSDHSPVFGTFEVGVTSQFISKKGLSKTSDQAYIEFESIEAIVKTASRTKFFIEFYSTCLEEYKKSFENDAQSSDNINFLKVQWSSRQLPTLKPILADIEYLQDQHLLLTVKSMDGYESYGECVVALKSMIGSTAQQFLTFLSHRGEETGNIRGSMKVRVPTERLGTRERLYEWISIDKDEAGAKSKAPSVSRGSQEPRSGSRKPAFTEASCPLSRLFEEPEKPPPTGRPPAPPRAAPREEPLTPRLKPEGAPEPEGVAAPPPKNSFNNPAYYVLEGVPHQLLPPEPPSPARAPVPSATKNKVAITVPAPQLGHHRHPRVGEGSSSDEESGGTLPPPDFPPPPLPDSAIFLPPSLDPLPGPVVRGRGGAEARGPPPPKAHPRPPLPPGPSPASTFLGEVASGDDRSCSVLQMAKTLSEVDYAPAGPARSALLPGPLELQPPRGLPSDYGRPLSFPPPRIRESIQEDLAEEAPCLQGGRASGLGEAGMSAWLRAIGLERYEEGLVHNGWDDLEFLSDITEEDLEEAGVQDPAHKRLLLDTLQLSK
Experiment: Inhibition of SHIP2 (unknown origin) assessed as remaining enzyme activity at 30 uM using PtdIns(3,4,5)P3 as substrate preincubated for 20 mins followed by substrate addition measured for 50 mins by malachite green staining based assay relative to control
Mark criterion not met for Activity values under 60%, and criterion met for everything at or above.

{"columns": ["molecular string", "label value"],
 "data": [
  ["Clc1ccc(COc2cncc(-c3ccc(CN4CCCC4)s3)c2)c(Cl)c1", "criterion not met"],
  ["CNc1ncc(-c2cncc(O[C@@H](C)c3c(Cl)ccc(F)c3Cl)c2)cn1", "criterion not met"],
  ["Nc1ccc(-c2cc(OCc3ccc(Cl)cc3Cl)ccn2)cn1", "criterion met"],
  ["Nc1ncc(-c2cncc(OCc3ccc(Cl)cc3Cl)c2)cn1", "criterion not met"],
  ["Nc1ncc(-c2cncc(OCc3ccc(Cl)cc3Cl)c2)cc1[N+](=O)[O-]", "criterion not met"]
]}

Answer whether Activity of `C[C@H](Oc1cncc(-c2cnc(N)nc2)c1)c1c(Cl)ccc(F)c1Cl` is greater than or equal to 60%.
criterion not met

Answer whether Activity of `C[C@@H](Oc1cncc(-c2ccc(N)nc2)c1)c1c(Cl)ccc(F)c1Cl` is greater than or equal to 60%.
criterion not met

Answer whether Activity of `Cc1ccc(-c2cncc(OCc3ccc(Cl)cc3Cl)c2)cn1` is greater than or equal to 60%.
criterion met

Answer whether Activity of `Clc1ccc(COc2cncc(-c3cccs3)c2)c(Cl)c1` is greater than or equal to 60%.
criterion met

----------
assay: Drug uptake in blood of Sprague-Dawley rat at 5 mg/kg, iv measured at 1 hr by LC-MS/MS analysis; format: ADME, organism-based; settings: read-out: Drug uptake
property name: concentration at 1 h (µg/mL)
Write it as a number; the unit µg/mL goes unstated.

molecule `C[C@@H](Oc1cncc(-c2cnc(N)nc2)c1)c1c(Cl)ccc(F)c1Cl` , concentration at 1 h observed: 1.18

----------
assay: Metabolic stability in human liver microsomes assessed as parent compound remaining at 1 uM preincubated for 5 mins followed by NADPH addition measured after 30 mins by LC-MS/MS analysis; assay type: ADME, microsome; conditions: read-out: Stability
property name: remaining at 0.5 h, 1 µM

Some solved entries appear below for comparison.
{"columns": ["molecular string", "assay result"],
 "data": [
  ["Nc1ccc(-c2cncc(OCc3ccc(Cl)cc3Cl)c2)cn1", "29.9%"],
  ["C[C@@H](Oc1cncc(-c2cnc(N)nc2)c1)c1c(Cl)ccc(F)c1Cl", "77%"],
  ["O=C(NCc1c(F)cccc1F)c1sccc1OCc1ccc(Cl)cc1Cl", "44.1%"],
  ["C[C@@H](Oc1cncc(-c2ccc(C#N)s2)c1)c1c(Cl)ccc(F)c1Cl", "13%"]
]}

Moving on to another molecule below.
molecule `N#Cc1ccc(-c2cncc(OCc3ccc(Cl)cc3Cl)c2)s1` , remaining at 0.5 h, 1 µM observed: 74.5%
